# experimental-target: T1, huNABA-avi-his (hybrid protein N-A1-B3-A2: N and A1 domains of human BGP, B3 domain of human CEA, A2 domain … (human, biotinylated at the avi tag (in vivo, co-transfected biotin ligase)))
# T1 construct: also called NABA-avi-his reagent; biotinylated NABA
# T1 chain: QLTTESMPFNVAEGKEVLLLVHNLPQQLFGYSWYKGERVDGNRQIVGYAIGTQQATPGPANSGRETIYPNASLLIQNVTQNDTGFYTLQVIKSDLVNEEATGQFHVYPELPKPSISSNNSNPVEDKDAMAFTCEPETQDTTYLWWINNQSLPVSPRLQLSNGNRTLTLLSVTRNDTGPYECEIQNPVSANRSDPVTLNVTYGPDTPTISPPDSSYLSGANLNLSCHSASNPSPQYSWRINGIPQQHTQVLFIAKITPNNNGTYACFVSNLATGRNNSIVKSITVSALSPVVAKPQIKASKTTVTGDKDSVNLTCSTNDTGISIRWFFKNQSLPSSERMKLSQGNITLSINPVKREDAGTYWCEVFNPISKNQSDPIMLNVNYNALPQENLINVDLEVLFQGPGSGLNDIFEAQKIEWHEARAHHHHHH
# assay: Biacore, Fab on immobilized NABA-avi-his; column Monovalent Affinity
List of Kd values.
Write the number in nM without appending the unit.

Record excerpt, results attached:
{"binder": "1C8 x 2F1 (Fab, V domains shown, also called 1C8 x 2F1 hc/lc, monovalent; copies: 1 + 1) VH: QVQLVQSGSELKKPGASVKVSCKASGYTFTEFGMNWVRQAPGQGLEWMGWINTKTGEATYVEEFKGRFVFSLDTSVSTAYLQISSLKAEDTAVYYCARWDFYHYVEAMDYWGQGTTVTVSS VL: DIQMTQSPSSLSASVGDRVTITCKASAAVGTYVAWYQQKPGKAPKLLIYSASYRKRGVPSRFSGSGSGTDFTLTISSLQPEDFATYYCHQYYTYPLFTFGQGTKLEIK", "result-type": "Kd", "quantity-unit": "nM", "val": 128}
{"binder": "H3 Full (5) 19 (Fab, V domains shown) VH: QVQLVQSGSELKKPGASVKVSCKASGYTFTEFGMSWVRQAPGQGLEWMGWINTKTGEATYVEEFKGRFVFSLDTSVSTAYLQISSLKAEDTAVYYCARWDAFEYVKALDYWGQGTTVTVSS VL: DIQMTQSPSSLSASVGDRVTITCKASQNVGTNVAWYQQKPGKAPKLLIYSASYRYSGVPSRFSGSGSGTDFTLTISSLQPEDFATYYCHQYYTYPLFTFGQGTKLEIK", "result-type": "Kd", "quantity-unit": "nM", "val": 24}
{"binder": "anti-CEA Fab with affinity matured heavy chain CH7A H4E9 and unmatured light chain CL1A (Fab, V domains shown, Fab format, bacterially expressed; also called CH7A H4E9 + CL1A) VH: QVQLVQSGSELKKPGASVKVSCKASGYTFTEFGMNWVRQAPGQGLEWMGWINTKTGEATYIEEFKGRFVFSLDTSVSTAYLQISSLKAEDTAVYYCARWDFYDYVEAMDYWGQGTTVTVSS VL: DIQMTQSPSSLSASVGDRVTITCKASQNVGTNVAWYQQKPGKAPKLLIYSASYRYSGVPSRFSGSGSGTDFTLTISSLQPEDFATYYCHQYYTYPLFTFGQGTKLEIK", "result-type": "Kd", "quantity-unit": "nM", "val": 402}

Look up and report measured Kd for this entry: H3 Full (5) 8 (Fab, V domains shown) VH: QVQLVQSGSELKKPGASVKVSCKASGYTFTEFGMNWVRQAPGQGLEWMGWINTKTGEATYVEEFKGRFVFSLDTSVSTAYLQISSLKAEDTAVYYCARWDFFEYFKTMDYWGQGTTVTVSS VL: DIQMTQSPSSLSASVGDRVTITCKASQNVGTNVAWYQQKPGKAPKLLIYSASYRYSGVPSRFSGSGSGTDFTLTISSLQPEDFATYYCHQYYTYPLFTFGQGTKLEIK 51

Look up and report measured Kd for this entry: PR1A3 (Fab, V domains shown, also called PR1A3 wt/wt; pMS22) VH: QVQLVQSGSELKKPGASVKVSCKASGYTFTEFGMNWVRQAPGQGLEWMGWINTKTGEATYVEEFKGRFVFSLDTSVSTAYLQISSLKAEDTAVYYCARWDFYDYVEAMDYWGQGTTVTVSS VL: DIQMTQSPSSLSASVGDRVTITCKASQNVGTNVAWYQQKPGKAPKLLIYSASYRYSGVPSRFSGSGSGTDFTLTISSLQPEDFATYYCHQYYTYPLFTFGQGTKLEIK 3680
